- assayInfo: Solubility in simulated intestinal fluid at pH 7.6 by HPLC method
- Type: physicochemical
observable: solubility (µM)
Numeric answer only, unit µM assumed.

// query Identify solubility associated with the compound `O=C1c2cc([N+](=O)[O-])ccc2-n2c1nc1ccccc1c2=O`
// result 152

// query Identify solubility associated with the compound `O=C1c2cc(C(=O)N3CCCCC3)ccc2-n2c1nc1ccccc1c2=O`
// result 27.5

// query Identify solubility associated with the compound `O=C1c2ccc(Cl)cc2-n2c1nc1ccccc1c2=O`
// result 20.3

// query Identify solubility associated with the compound `O=C1c2ccccc2-n2c1nc1ccccc1c2=O`
// result 12.9
